# procedure.summary: Chemical stability in phosphate buffer of pH 7.4 assessed as change in ester
# Type: physicochemical
# study.conditions: read-out: Activity
// label = MET if percent change in ester is not less than -10%, otherwise NOT MET

{"smiles.entry": "CCCOC(=O)c1ccc(Oc2ccc3c(c2)COB3O)nc1", "group.label": "NOT MET"}
{"smiles.entry": "CCCOC(=O)c1ccc(Oc2ccc3c(c2)COB3O)cc1", "group.label": "MET"}
{"smiles.entry": "COC(=O)c1ccc(Oc2ccc3c(c2)COB3O)cc1", "group.label": "MET"}
{"smiles.entry": "CC(C)OC(=O)c1ccc(Oc2ccc3c(c2)COB3O)cc1", "group.label": "NOT MET"}
{"smiles.entry": "CC(C)OC(=O)c1ccc(Oc2ccc3c(c2)COB3O)nc1", "group.label": "MET"}

###

# procedure.summary: Cmax in CD1 mouse at 100 mg/kg, po
# Format: ADME, organism-based
# Parameters: dose 100 mg/kg, route oral
# study.conditions: in vivo
measure: Cmax (ng/mL)

{"smiles.entry": "CCOC(=O)c1ccc(Oc2ccc3c(c2)COB3O)nc1", "measure": "Cmax", "observed.measurement": 4390}

###

// values below are reported Activity
# System: Plasma
# procedure.summary: Metabolic stability in CD1 mouse plasma assessed as change in ester
# Type: ADME, cell-free

{"smiles.entry": "CC(C)OC(=O)c1ccc(Oc2ccc3c(c2)COB3O)nc1", "Activity (%)": -60.5}
{"smiles.entry": "COC(=O)c1ccc(Oc2ccc3c(c2)COB3O)nc1", "Activity (%)": -42.4}
{"smiles.entry": "CCCOC(=O)c1ccc(Oc2ccc3c(c2)COB3O)nc1", "Activity (%)": -92.5}
{"smiles.entry": "CCCCOC(=O)c1ccc(Oc2ccc3c(c2)COB3O)nc1", "Activity (%)": -98}
{"smiles.entry": "CCOC(=O)c1ccc(Oc2ccc3c(c2)COB3O)nc1", "Activity (%)": -72.5}
{"smiles.entry": "CCCOC(=O)c1ccc(Oc2ccc3c(c2)COB3O)cc1", "Activity (%)": -94.9}
{"smiles.entry": "COC(=O)c1ccc(Oc2ccc3c(c2)COB3O)cc1", "Activity (%)": -43.6}
{"smiles.entry": "CCOC(=O)c1ccc(Oc2ccc3c(c2)COB3O)cc1", "Activity (%)": -76.2}
{"smiles.entry": "CC(C)OC(=O)c1ccc(Oc2ccc3c(c2)COB3O)cc1", "Activity (%)": -58.9}

###

# procedure.summary: Cmax in CD1 mouse at 25 mg/kg, iv
# Type: ADME, organism-based
# Set-up: dose 25 mg/kg, route intravenous
# study.conditions: in vivo

{"smiles.entry": "CCOC(=O)c1ccc(Oc2ccc3c(c2)COB3O)nc1", "Cmax": "12.5 µg/mL"}

###

# procedure.summary: Bioavailability in CD1 mouse at 100 mg/kg, sc
# Format: ADME, organism-based
# study.conditions: in vivo
measure: bioavailability (%)

{"smiles.entry": "CCOC(=O)c1ccc(Oc2ccc3c(c2)COB3O)nc1", "measure": "bioavailability", "observed.measurement": 97.8}

###

# Tested on: Plasma
# procedure.summary: Metabolic stability in CD1 mouse plasma assessed as change in formation of acid
# Assay type: ADME, cell-free
Classification field: True = Activity at or over 50%; False = Activity under 50%.

{"smiles.entry": "CCOC(=O)c1ccc(Oc2ccc3c(c2)COB3O)cc1", "group.label": "True"}
{"smiles.entry": "COC(=O)c1ccc(Oc2ccc3c(c2)COB3O)nc1", "group.label": "False"}
{"smiles.entry": "CC(C)OC(=O)c1ccc(Oc2ccc3c(c2)COB3O)nc1", "group.label": "False"}
{"smiles.entry": "CC(C)OC(=O)c1ccc(Oc2ccc3c(c2)COB3O)cc1", "group.label": "False"}
{"smiles.entry": "COC(=O)c1ccc(Oc2ccc3c(c2)COB3O)cc1", "group.label": "False"}
{"smiles.entry": "CCCOC(=O)c1ccc(Oc2ccc3c(c2)COB3O)nc1", "group.label": "True"}
{"smiles.entry": "CCCCOC(=O)c1ccc(Oc2ccc3c(c2)COB3O)nc1", "group.label": "True"}
{"smiles.entry": "CCCOC(=O)c1ccc(Oc2ccc3c(c2)COB3O)cc1", "group.label": "True"}

The measurements presented in this section are drawn from ChEMBL document CHEMBL1156280.
